target: human CYP11B1 (Homo sapiens (Human)); test: G-402 cellular enzyme assay, human CYP11B1 (cortisol release); conditions: G-402 cells expressing human CYP11B1, 1 μM Deoxycortisol
Sequence (P15538 25-503): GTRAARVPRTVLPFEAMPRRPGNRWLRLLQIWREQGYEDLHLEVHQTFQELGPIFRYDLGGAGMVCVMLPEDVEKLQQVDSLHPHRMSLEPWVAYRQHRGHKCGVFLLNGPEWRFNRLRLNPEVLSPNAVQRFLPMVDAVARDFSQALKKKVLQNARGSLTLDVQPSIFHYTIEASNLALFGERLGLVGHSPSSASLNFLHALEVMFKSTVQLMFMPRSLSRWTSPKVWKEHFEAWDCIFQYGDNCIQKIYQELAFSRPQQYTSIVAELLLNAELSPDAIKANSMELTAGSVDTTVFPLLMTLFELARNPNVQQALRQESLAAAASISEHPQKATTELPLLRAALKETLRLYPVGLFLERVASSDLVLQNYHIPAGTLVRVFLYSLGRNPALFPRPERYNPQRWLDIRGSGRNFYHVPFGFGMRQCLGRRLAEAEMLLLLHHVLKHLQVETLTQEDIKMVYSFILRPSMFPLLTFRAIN
Result type: EC50 (nM)

>>> value_measured("CCC(=O)N[C@H]1c2cncc(-c3ccc(C(F)(F)F)cc3)c2CC[C@H]1C (single isomer, unassigned) [Example 70]")
3030
>>> value_measured("CCC(=O)NC1CCc2c(-c3ccc(Cl)c(F)c3)cncc21 (single isomer, unassigned; (-)) [Example 56]")
38300
>>> value_measured("CCCNS(=O)(=O)NC1CCCc2c(-c3ccc(C#N)cc3)cncc21 (racemic) [Example 3]")
291
>>> value_measured("O=S(=O)(NC1CCc2c(-c3ccc(C(F)(F)F)c(F)c3)cncc21)C1CC1 (racemic) [Example 91]")
389
>>> value_measured("CCC(=O)NC1CCCc2c(-c3ccc(Cl)cc3F)cncc21 (single isomer, unassigned; (+)) [Example 32]")
617
>>> value_measured("CCC(=O)NC1CCCc2c(-c3ccc(C(F)(F)F)cc3F)cncc21 (racemic) [Example 33]")
14700

(A) COC1CCCc2c(-c3ccc(C#N)cc3)cncc21 (racemic) [Example 13]
(B) OC1CCc2c(-c3ccc(C(F)(F)F)cc3F)cncc21 (racemic) [Example 80]
(C) CCC(=O)NC1CCCc2c(-c3ccc(C(F)(F)F)cc3F)cncc21 (single isomer, unassigned; (+)) [Example 35]
Q. Highest EC50 first, then in falling order down to the smallest. Please, when replying, give the labels in the order that was requested.
A. C, B, A
(C: 6680 nM, B: 427 nM, A: 8 nM)
